FYI, the data here is from patent US9340577B2.

Molecular target: A*3301 (Homo sapiens, UniProt P04439, A270S/D185E/E176V/E277Q/E87N/F33T/G231S/H175R/I121M/I218V/I322F/K168Q/K210R/L300P/L318F/M331R/P217A/Q86R/Q94H/R138Q/T323A/T345S/T97I/V358M/Y195H)
Assay: biochemical
Residues, ends and D or L forms follow the SMILES beside them.
quantity measured: IC50 (µM)
// note: answer is a bare numeric in µM

Given the entry CC[C@H](C)[C@H](N)C(=O)N[C@@H](CO)C(=O)N[C@@H](Cc1ccccc1)C(=O)N[C@@H](C)C(=O)NCC(=O)N[C@H](C(=O)N[C@H](C(=O)N[C@H](C(=O)N[C@@H](CCCCN)C(=O)O)[C@@H](C)O)C(C)C)[C@@H](C)CC [Peptide 1589.17] , report its measured IC50.
4.37

What would you report for CC(C)C[C@H](NC(=O)[C@H](CCCNC(=N)N)NC(=O)[C@H](Cc1ccccc1)NC(=O)CNC(=O)[C@@H](N)Cc1ccc(O)cc1)C(=O)NCC(=O)N[C@@H](Cc1ccccc1)C(=O)N[C@@H](CC(C)C)C(=O)N[C@@H](Cc1c[nH]cn1)C(=O)O [Peptide 1556.26] ?
9.91

What would you report for CC[C@H](C)[C@H](NC(=O)[C@H](CS)NC(=O)[C@H](CCCNC(=N)N)NC(=O)[C@@H](NC(=O)[C@@H](N)CC(C)C)[C@@H](C)CC)C(=O)N[C@H](C(=O)N[C@@H](CS)C(=O)N[C@@H](CCC(N)=O)C(=O)N[C@@H](CCCCN)C(=O)O)[C@@H](C)CC [Peptide 88.0298] (H-LIRCIICQK-OH) ?
0.834

====

Target: B*3502 (Homo sapiens, UniProt P01889, A329T/A93T/A95T/C349S/D138N/D201E/D98Y/E176V/E187L/E204Q/E69T/I218V/K202T/L119I/L133F/Q94N/R155S/R180L/S121R/S35A/S48A/T118I/V127L/V306I/V36M/Y91F)
Test: biochemical
Assay type: binding
pIC50: −log10 of the molar value. No end group written: not given here.
Kindly supply the reported pIC50 values for the records listed here.

Given the entry APRASRPSL , report its measured pIC50.
< 4.52

What would you report for DPKVKQWPL ?
< 4.52

What would you report for DPYEVSYRI ?
< 4.52

====

Target: DRB1*0802 (Homo sapiens, UniProt P01903+P01911, A100R/A103L/A169T/F76Y/H45Y/I96F/K41T/L162R/M171V/P40S/Q125H/Q178H/Q39Y/Q99D/R218S/R42G/S66Y/V115G/W38E)
Test: biochemical
Assay type: binding
No end group written: not given here.
quantity measured: pIC50
// returns pIC50 (minus log10 of molar concentration), number only

Given the entry LKRFLQGIPKKNCIL [Peptide 89.0016] , report its measured pIC50.
5.48

What would you report for RREVYDFAFRDLCIV [Peptide 1543.25] ?
5.04

What would you report for SADDLRAFQQLFLNT [Peptide 1543.07] ?
5.16

What would you report for TVTFVTEQQQQMFLG [Peptide 90.0210] ?
5.22

What would you report for QHSFNDDIFDLSEMI [Peptide 90.0152] ?
5.12

What would you report for WKLIRMECAIMYTAR [Peptide 90.0245] ?
5.04

What would you report for FAGIVTKLPTANNTT [Peptide 89.0175] ?
5.81

What would you report for HWKLIRMECAIMYTA [Peptide 90.0021] ?
4.85

What would you report for LKSFLKGTPKKNCLV [Peptide 89.0035] ?
6.68

What would you report for GQVIVFPESVFSSDE [Peptide 89.0173] ?
5.67

What would you report for ITHIGHQVVPPMAVS [Peptide 90.0010] ?
4.91

What would you report for LKVLIQPYSIYAHLQ [Peptide 89.0098] ?
5.32
